Quick reference for EC50 among some compounds
- subject of test: human APJ receptor (Homo sapiens, UniProt P35414)
- Sequence (P35414 1-380): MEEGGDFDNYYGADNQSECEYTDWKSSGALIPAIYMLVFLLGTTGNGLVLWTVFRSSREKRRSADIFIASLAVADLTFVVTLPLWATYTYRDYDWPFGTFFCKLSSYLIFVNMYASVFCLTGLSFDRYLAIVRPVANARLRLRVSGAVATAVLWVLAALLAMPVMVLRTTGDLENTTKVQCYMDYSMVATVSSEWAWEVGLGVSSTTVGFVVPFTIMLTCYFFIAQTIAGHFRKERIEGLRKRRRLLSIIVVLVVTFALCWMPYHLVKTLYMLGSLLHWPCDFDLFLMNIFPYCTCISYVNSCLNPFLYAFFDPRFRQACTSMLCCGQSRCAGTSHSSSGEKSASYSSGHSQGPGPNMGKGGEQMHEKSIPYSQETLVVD
- experiment notes: Intracellular cAMP accumulation assay (APJ hcAMP, HTRF)
- protocol conditions: HEK293 cells stably expressing human APJ receptor; inhibition of forskolin-mediated cAMP production; read-out: Human APJ cAMP EC50 Potency range

1) CCOCc1[nH]c(=O)c(S(=O)(=O)c2ccc(-c3ccc(F)nc3)cc2)c(O)c1-c1c(OC)cccc1OC
0.01 to 10 nM
2) COc1cccc(OC)c1-c1c(-c2ccc(F)cc2)[nH]c(=O)c(S(=O)(=O)c2ccc(-n3cc(Cl)ccc3=O)cc2)c1O
0.01 to 10 nM
3) CCCCc1[nH]c(=O)c(S(=O)(=O)c2ccccc2Br)c(O)c1-c1c(OC)cccc1OC
10 to 100 nM
4) CCCCc1[nH]c(=O)c(S(=O)(=O)c2ccc(-c3ccc(F)nc3)cn2)c(O)c1-c1c(OC)cccc1OC
0.01 to 10 nM
5) CCCCc1[nH]c(=O)c(S(=O)(=O)c2ccc(-n3cc(C)ccc3=O)cc2)c(O)c1-c1c(OC)cccc1OC
0.01 to 10 nM

[Q] Given `CCCCc1[nH]c(=O)c(S(=O)(=O)c2ccc(-c3ccc(F)cc3)cc2)c(O)c1-c1c(OC)cccc1OC` , state its recorded EC50.
[A] 10 to 100 nM

[Q] Given `CCCCc1[nH]c(=O)c(S(=O)(=O)c2ccc(-n3ccccc3=O)cc2)c(O)c1-c1c(OC)cccc1OC` , state its recorded EC50.
[A] 0.01 to 10 nM
